Data origin: patent US6750224B1

# System: Mupirocin-resistant Staph STA-34
# procedure.summary: In-vitro antimicrobial activity test (MIC, NCCLS)
# Assay type: cell-based, Staphylococcus aureus
# Text: The test method was in accordance with the standard NCCLS protocol.
observable: MIC (µg/mL)
A number alone suffices; assume µg/mL.

C[C@H]1COc2c(N3CCN(C)CC3)c(F)cc3c(=O)c(C(=O)O)cn1c23	12.5
C[C@H]1CCc2c(N3CCC(O)CC3)c(F)cc3c(=O)c(C(=O)O)cn1c23 [S-(−)-Nadifloxacin]	0.4

# evaluate next
Prompt: Short answer please: MIC, Mupirocin-resistant Staph STA-34, entry CC1CCc2c(N3CCC(O)CC3)c(F)cc3c(=O)c(C(=O)O)cn1c23 (racemic) [RS-(±)-Nadifloxacin]
Response: 1.56
